Source: patent US7495027B2

Test: Toxicity in treated gerbils (deaths or significant weight loss)
Assay type: in vivo
Design: key: +: Toxicity is indicated for those groups having one or more animals expired
Conditions: single oral dose of 50 mg/kg, groups of 3
MEASURED ATTRIBUTE: Toxicity

>>> measured_value("O=C1OC(=Cc2ccc(F)c(F)c2)C(O)=C1c1ccc(OC(F)(F)F)cc1 (mixture of isomers)")
"+"
>>> measured_value("N#Cc1ccc(/C=C2\\OC(=O)C(c3ccc(Cl)cc3)=C2O)cc1")
"+"
>>> measured_value("O=C1OC(=Cc2ccc(Cl)cc2)C(O)=C1c1ccc(OC(F)(F)F)cc1 (mixture of isomers)")
"+"
>>> measured_value("O=C1O/C(=C\\c2ccc(-c3ccccc3)cc2)C(O)=C1c1cc(Cl)cc(Cl)c1")
"+"
>>> measured_value("N#Cc1ccc(C2=C(O)C(=Cc3ccc(Cl)cc3)OC2=O)cc1")
"+"

Now consider a different molecule.
What measured Toxicity goes with O=C1OC(=Cc2ccc(OC(F)(F)F)cc2)C(O)=C1c1ccc(OC(F)(F)F)cc1 (mixture of isomers) ?
+

====

Tested on: larvae of blowfly, Lucilia sericata
Experiment: whole plant or invertebrate
Conditions: dose rate of 20 ppm; Lucilia sericata larvae on treated filter paper with bovine serum; assessed at 48 h
MEASURED ATTRIBUTE: % Mortality 48 h (%)
Give bare numbers, in %.

The examples below pair each entry with its known result.
>>> measured_value("N#Cc1ccc(C=C2OC(=O)C(c3cccc(Cl)c3)=C2O)cc1 (mixture of isomers)")
0
>>> measured_value("O=C1OC(=Cc2ccc(-c3ccc(C(F)(F)F)cc3)cc2)C(O)=C1c1ccc(Cl)cc1 (mixture of isomers)")
0
>>> measured_value("N#Cc1ccc(C=C2OC(=O)C(c3cccc(C(F)(F)F)c3)=C2O)cc1 (mixture of isomers)")
20

Next item in the queue.
Can you look up the measured % Mortality 48 h of N#Cc1ccc(-c2ccc(C=C3OC(=O)C(c4cccc(Cl)c4)=C3O)cc2)cc1 (mixture of isomers) for me?
0

====

Molecular target: S. aureus Uridine-diphosphate-N-acetylmuramoyl-L-alanine: D-glutamate liease, MurD (Staphylococcus aureus, UniProt Q2FZ92)
Sequence (Q2FZ92 whole entry): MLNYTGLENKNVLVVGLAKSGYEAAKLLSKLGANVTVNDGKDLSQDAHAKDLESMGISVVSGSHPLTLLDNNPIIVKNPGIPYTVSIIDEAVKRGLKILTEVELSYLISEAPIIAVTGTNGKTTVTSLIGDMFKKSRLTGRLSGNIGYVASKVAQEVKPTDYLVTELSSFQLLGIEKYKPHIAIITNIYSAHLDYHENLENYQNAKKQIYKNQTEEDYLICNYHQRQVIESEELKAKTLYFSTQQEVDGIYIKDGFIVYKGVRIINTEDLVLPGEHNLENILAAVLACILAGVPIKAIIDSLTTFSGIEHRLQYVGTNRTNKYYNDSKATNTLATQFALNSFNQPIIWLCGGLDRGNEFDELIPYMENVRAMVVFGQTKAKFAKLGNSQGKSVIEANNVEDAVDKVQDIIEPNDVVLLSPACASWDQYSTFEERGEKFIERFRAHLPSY
Exercise: state measured IC50 for each of the compounds provided.
Numbers only, in µM.

Worked examples follow.
>>> measured_value("O=C1O/C(=C\\c2ccc(-c3ccccc3)cc2)C(O)=C1c1ccc(Cl)cc1 [Example 53]")
42.7
>>> measured_value("O=C1O/C(=C\\c2cccc(C(F)(F)F)c2)C(O)=C1c1cccc(-c2ccccc2)c1 [Example 108]")
36.7
>>> measured_value("COc1ccccc1-c1ccc(/C=C2\\OC(=O)C(c3cccc(Cl)c3)=C2O)cc1C [Example 23]")
23.9

For each of the compounds below, state IC50.
1. O=C1O/C(=C\c2ccc(-c3ccccc3)cc2)C(O)=C1c1csc2ccccc12 [Example 143]
2. O=C1O/C(=C\c2ccccc2C(F)(F)F)C(O)=C1c1ccc(-c2ccccc2)c(F)c1 [Example 107]
3. O=C1O/C(=C\c2ccc3ccccc3c2)C(O)=C1c1ccc2ccccc2c1 [Example 52]

25.2
39.9
54.9

====

Biological target: UniProt:P17952
Sequence (P17952 whole entry): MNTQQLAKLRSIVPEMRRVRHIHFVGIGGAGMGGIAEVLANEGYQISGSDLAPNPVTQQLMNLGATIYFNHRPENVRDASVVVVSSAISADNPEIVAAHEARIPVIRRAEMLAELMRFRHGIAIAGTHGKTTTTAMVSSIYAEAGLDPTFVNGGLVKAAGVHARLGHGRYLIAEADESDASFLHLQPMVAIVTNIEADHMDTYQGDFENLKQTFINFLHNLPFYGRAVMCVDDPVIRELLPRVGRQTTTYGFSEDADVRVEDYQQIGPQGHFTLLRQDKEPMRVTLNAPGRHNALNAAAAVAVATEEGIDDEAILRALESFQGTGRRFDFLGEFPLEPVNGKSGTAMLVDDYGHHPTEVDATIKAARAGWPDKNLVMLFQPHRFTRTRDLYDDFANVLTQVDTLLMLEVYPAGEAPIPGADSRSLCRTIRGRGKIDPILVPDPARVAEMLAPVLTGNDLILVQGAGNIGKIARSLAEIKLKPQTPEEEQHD
Test: Inhibitory activity against MurC (E. coli)
Format: biochemical
Settings: (E) E. coli enzyme; read-out: MurC IC50 (converted)
For each record, write down the corresponding IC50.

>>> measured_value("O=C1O/C(=C\\c2cccc(C(F)(F)F)c2)C(O)=C1c1cccc(-c2ccccc2)c1")
"14.7 µM"
>>> measured_value("Cc1ccc(/C=C2\\OC(=O)C(c3cccc(C(F)(F)F)c3)=C2O)s1")
"42.6 µM"
>>> measured_value("O=C1O/C(=C\\c2ccc(Cl)cc2)C(O)=C1c1cccc2ccccc12")
"45.9 µM"
>>> measured_value("CC(C)(C)c1ccc(-c2ccc(C3=C(O)/C(=C/c4cc(C(F)(F)F)ccc4Cl)OC3=O)cc2)cc1")
"48.1 µM"
>>> measured_value("O=C1O/C(=C\\c2cccc(-c3ccc(Cl)c(Cl)c3)c2)C(O)=C1c1ccc(Cl)c(Cl)c1")
"12.5 µM"

Parameters: items (list). Returns: IC50 for each item.
1. N#Cc1cccc(-c2ccc(/C=C3\OC(=O)C(c4ccccc4C#N)=C3O)cc2)c1
2. O=C1O/C(=C\c2cccc(C(F)(F)F)c2)C(O)=C1c1ccc(-c2ccccc2)c(F)c1
3. CCCc1ccc(-c2ccc(C3=C(O)/C(=C/c4cc(F)cc(C(F)(F)F)c4)OC3=O)cc2)cc1

["15.4 µM", "21.1 µM", "> 53.4 µM"]

Count: 3. Required value per item: IC50.
1. O=C1O/C(=C\c2ccccc2C(F)(F)F)C(O)=C1c1ccc(-c2ccccc2)c(F)c1
2. CC(C)(C)c1ccc(-c2ccc(C3=C(O)/C(=C/c4ccc(Cl)c(C(F)(F)F)c4)OC3=O)cc2)cc1
3. O=C1O/C(=C\c2cccc3ccccc23)C(O)=C1c1ccc(C(F)(F)F)cc1

14.1 µM
> 50.1 µM
28.8 µM

Give measured IC50 for every item shown.
1. O=C1O/C(=C\c2cc(F)cc(C(F)(F)F)c2)C(O)=C1c1cccc(-c2ccccc2)c1 [Example 112]
2. O=C1O/C(=C\c2ccc3ccccc3c2)C(O)=C1c1ccc2ccccc2c1

23.5 µM
46.7 µM
